Here the recorded pIC50 is given for each entry.
system.under.test: hTLR9 (Homo sapiens, UniProt Q9NR96)
Sequence (Q9NR96 26-1032): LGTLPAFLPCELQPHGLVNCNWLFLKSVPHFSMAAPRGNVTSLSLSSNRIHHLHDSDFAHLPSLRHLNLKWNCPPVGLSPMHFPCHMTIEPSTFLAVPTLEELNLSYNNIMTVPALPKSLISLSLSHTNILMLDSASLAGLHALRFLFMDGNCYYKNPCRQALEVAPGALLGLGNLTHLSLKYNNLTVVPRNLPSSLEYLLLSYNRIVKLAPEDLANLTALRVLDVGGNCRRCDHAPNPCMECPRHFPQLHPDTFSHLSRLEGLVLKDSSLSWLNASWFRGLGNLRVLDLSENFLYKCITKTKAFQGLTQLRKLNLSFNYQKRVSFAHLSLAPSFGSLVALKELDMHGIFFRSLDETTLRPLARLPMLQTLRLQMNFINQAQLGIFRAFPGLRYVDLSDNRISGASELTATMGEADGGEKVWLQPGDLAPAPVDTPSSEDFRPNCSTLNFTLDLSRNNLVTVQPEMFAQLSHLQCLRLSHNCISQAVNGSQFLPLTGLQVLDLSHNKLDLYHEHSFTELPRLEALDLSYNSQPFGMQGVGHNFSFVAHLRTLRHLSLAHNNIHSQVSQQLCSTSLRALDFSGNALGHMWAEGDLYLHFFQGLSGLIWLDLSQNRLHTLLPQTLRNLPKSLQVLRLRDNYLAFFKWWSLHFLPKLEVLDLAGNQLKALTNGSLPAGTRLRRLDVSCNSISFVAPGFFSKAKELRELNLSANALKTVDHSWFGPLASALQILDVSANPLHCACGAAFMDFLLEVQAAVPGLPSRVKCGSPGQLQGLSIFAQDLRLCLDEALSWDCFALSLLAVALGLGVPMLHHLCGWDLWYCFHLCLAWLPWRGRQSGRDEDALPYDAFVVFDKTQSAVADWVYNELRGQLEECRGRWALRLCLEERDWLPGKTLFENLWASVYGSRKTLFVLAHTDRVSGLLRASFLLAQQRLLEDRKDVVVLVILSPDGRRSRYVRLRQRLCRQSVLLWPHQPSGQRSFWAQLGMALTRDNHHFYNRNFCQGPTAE
assay.explanation: HEK293-Blue-hTLR-9 cells assay (SEAP reporter, ODN2006 stimulation)
Assay type: cell-based
Design: host or cells: HEK293 (HEK-Blue hTLR9)
protocol.conditions: HEK293-Blue-hTLR9 cells, ODN2006, 20 hrs; read-out: HEK/hTLR9 IC50
pIC50: −log10 of the molar value.

compound: Cc1cc(N2CCN(C[C@H]3CN(c4ccc(C#N)c5ncccc45)C[C@@H](C)O3)CC2)nc(N2C[C@@H]3COC[C@@H](C2)N3)n1
pIC50: 7.35
//
compound: Cc1cc(N2CCN(C[C@H]3CN(c4ccc(C#N)c5ncccc45)C[C@@H](C)O3)CC2)nc(N2CC(N)CC(F)(F)C2)n1 (stereo partly drawn)
pIC50: 6.92
//
compound: CO[C@H]1CN(c2nccc(N3CCN(C[C@H]4CN(c5ccc(C#N)c6ncccc56)C[C@@H](C)O4)CC3)n2)C[C@@H]1N
pIC50: 7.49
//
compound: C[C@@H]1CN(c2ccc(C#N)c3ncccc23)C[C@H](CN2CCN(c3cccc(N4CCC(N)CC4)n3)CC2)O1
pIC50: 6.93
//
compound: Cc1cc(N2CCN(C[C@H]3CN(c4ccc(C#N)c5ncccc45)C[C@@H](C)O3)CC2)nc(N2CC(N)C(F)(F)C2)n1 (stereo partly drawn)
pIC50: 6.61
//
compound: Cc1cc(N2CCN(C[C@H]3CN(c4ccc(C#N)c5ncccc45)C[C@@H](C)O3)CC2)nc(N2CCC(N)C(F)(F)C2)n1 (stereo partly drawn)
pIC50: 6.72

* * *

system.under.test: hERG channel (Homo sapiens)
Construct: expressed in transfected cells; host or cells: CHO (Chinese hamster ovary)
Sequence (Q12809 whole entry): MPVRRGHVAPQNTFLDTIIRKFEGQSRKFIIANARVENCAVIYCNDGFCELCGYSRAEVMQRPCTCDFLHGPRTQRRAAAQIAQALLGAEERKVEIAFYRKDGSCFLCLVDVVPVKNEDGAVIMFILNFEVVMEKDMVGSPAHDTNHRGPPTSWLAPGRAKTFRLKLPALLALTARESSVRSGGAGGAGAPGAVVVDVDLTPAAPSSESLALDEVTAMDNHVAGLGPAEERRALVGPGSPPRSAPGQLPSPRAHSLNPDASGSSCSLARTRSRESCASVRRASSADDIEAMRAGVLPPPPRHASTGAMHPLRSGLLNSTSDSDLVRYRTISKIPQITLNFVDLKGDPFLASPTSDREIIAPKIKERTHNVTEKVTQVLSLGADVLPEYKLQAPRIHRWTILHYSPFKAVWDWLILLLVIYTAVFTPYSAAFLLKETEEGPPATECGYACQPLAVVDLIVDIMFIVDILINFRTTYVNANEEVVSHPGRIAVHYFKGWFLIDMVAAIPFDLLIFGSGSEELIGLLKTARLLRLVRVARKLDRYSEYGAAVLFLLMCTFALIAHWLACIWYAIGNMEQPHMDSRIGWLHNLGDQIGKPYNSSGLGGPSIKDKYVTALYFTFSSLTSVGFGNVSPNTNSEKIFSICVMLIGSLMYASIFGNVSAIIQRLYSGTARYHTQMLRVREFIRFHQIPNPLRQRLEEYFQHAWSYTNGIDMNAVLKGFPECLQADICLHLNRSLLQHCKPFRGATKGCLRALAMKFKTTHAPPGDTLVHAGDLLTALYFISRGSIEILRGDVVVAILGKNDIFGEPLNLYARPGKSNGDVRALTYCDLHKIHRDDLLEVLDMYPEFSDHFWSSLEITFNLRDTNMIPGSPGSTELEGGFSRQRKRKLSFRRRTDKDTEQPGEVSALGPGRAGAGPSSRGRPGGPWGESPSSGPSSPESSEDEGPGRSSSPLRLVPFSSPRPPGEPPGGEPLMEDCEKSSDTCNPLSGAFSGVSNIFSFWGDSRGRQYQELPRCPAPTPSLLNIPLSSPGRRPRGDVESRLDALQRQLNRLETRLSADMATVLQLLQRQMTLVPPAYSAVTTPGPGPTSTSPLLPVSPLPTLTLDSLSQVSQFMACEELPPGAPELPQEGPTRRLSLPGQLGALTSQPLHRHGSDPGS
assay.explanation: hERG channel inhibition assay (patch-clamp, CHOhERG cells)
Format: cell-based
protocol.conditions: safety ratio

compound: C[C@@H]1CN(c2ccc(C#N)n3ncc(F)c23)C[C@H](CN2CCN(c3ccc(N4C[C@H]5NCCO[C@@H]5C4)nc3)CC2)O1
censor.symbol: =
hERG IC20/TLR7 IC50: 430
//
compound: COc1ccc(N2CCN(C[C@H]3CN(c4ccc(C#N)c5ncccc45)C[C@@H](C)O3)CC2)cc1 [Example R1, reference compound]
censor.symbol: =
hERG IC20/TLR7 IC50: 9.3
//
compound: [2H]c1ccc2c(N3C[C@H](CN4CCN(c5ccc(N6C[C@@H](N)[C@H](OC)C6)nc5)CC4)O[C@H](C)C3)ccc(C#N)c2n1
censor.symbol: >
hERG IC20/TLR7 IC50: 476
//
compound: [2H]c1ccc2c(N3C[C@H](CN4CCN(c5nc(C)cc(N6C[C@@H](N)[C@H](OC)C6)n5)CC4)O[C@H](C)C3)ccc(C#N)c2n1
censor.symbol: >
hERG IC20/TLR7 IC50: 909
//
compound: C[C@@H]1CN(c2ccc(C#N)c3ncccc23)C[C@H](CN2CCN(c3ccccc3)CC2)O1 [ER-887258, reference compound]
censor.symbol: =
hERG IC20/TLR7 IC50: 8.1
//
compound: [2H]c1ccc2c(N3C[C@H](CN4CCN(c5ccc(N6CC(C)(N)C6)nc5)CC4)O[C@H](C)C3)ccc(C#N)c2n1
censor.symbol: >
hERG IC20/TLR7 IC50: 434
